Listed here are molecules together with their documented pIC50.
System: HepG-2
Test: Cytotoxicity assay
Assay type: cell-based, Human
Conditions: read-out: IC50 HepG-2; HepG-2 cells, 48 h, MTT
Conceptually, pIC50 converts a concentration in mol/L into minus its log10.

NC1=N[N+]2=C(c3ccccc3)c3cccc[n+]3[Ga-2]2([Cl])([Cl])[S]1 ... 5.24
CCNC1=N[N+]2=C(c3ccccc3)c3cccc[n+]3[Ga-2]2([Cl])([Cl])[S]1 ... 5.91
[Cl][Ga-2]12([Cl])[S]C(NC3CCCCC3)=N[N+]1=C(c1ccccc1)c1cccc[n+]12 ... 6.01
CNC1=N[N+]2=C(c3ccccc3)c3cccc[n+]3[Ga-2]2([Cl])([Cl])[S]1 ... 5.56

Let us examine a further case.
According to the records, this molecule N.N.[Cl][Pt][Cl] [Cisplatin, reference compound] displays pIC50 of 4.65
